assay: Plasma concentration in mouse xenografted with human A375SM cells at 100 mg/kg, po administered qd for 20 days measured after 6 hrs of final dose; type: ADME, organism-based
measured_metric: concentration at 6 h (µM)
Expressed in µM, but write only the number.

Please give the measured concentration at 6 h for this compound: `Cc1cc(-c2n[nH]c3cc(NC(=O)N[C@H](C)c4ccccc4)ncc23)ccn1`
5.2

###

assay: Solubility in human FaSSIF at pH 6.5; type: physicochemical
measured_metric: solubility (µM)
Respond with the bare value in µM.

Please report the recorded solubility for `O=C(Nc1ccc2[nH]nc(-c3ccncc3)c2c1)[C@@H]1CCN(CC(=O)N2CCN(c3ccc(-c4ncccn4)cc3)CC2)C1` .
38

Please give the measured solubility for this compound: `Cc1cc(-c2n[nH]c3cc(NC(=O)N[C@H](C)c4ccccc4)ncc23)ccn1`
18

Origin of measurements: ChEMBL document CHEMBL4425122
